- Tested On: Type-1 angiotensin II receptor (Homo sapiens, UniProt P30556); note: assay procedure not described here
- Sequence (P30556 whole entry): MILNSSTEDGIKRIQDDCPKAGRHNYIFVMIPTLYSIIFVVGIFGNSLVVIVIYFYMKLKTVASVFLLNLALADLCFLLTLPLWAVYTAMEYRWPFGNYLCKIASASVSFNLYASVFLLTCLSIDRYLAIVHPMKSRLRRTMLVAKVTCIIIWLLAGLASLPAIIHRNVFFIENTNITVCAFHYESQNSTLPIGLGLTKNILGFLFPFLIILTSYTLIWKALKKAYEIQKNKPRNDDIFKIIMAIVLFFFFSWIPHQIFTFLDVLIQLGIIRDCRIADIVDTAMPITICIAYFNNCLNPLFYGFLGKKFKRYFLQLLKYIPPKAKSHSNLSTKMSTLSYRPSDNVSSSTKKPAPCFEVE
Listed compounds paired with reported AC50

Ask: Requested read-out AC50, target or system Type-1 angiotensin II receptor (Homo sapiens, UniProt P30556), entry CC(C)(N)Cc1ccccc1; note: assay procedure not described here
Reply: > 30 µM

====

- Tested On: Neuropeptide Y receptor type 1 (Homo sapiens); note: assay procedure not described here
- Sequence (P25929 whole entry): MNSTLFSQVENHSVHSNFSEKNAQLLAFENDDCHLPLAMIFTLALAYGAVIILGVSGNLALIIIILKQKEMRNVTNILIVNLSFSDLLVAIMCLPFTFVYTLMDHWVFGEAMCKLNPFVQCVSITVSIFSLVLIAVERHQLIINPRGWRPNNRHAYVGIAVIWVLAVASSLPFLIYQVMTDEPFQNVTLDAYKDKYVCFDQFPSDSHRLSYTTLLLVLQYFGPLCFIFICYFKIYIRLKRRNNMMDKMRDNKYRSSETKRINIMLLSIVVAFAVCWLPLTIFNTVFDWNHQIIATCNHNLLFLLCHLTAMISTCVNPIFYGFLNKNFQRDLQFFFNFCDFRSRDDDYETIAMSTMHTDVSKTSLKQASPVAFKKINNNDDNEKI
Listed next: entries and their corresponding AC50.

Consider the worked cases shown below.
| Molecule | Tested On | AC50 |
| --- | --- | --- |
| CCCCOC(=O)c1ccc(N)cc1 | Neuropeptide Y receptor type 1 (Homo sapiens) | > 30 µM |
| CC1NCCOC1c1ccccc1 (configuration not stated) | Neuropeptide Y receptor type 1 (Homo sapiens) | > 30 µM |
| CN1CCCN=C1/C=C/c1cccc(O)c1 | Neuropeptide Y receptor type 1 (Homo sapiens) | > 30 µM |

Next molecule, AC50 to be filled in.
Ask: What value of AC50 has been recorded for this entry: NCCCCCC(=O)O
Reply: > 10 µM

====

- Tested On: 5-hydroxytryptamine receptor 2B (Homo sapiens); note: assay procedure not described here
- Sequence (P41595 whole entry): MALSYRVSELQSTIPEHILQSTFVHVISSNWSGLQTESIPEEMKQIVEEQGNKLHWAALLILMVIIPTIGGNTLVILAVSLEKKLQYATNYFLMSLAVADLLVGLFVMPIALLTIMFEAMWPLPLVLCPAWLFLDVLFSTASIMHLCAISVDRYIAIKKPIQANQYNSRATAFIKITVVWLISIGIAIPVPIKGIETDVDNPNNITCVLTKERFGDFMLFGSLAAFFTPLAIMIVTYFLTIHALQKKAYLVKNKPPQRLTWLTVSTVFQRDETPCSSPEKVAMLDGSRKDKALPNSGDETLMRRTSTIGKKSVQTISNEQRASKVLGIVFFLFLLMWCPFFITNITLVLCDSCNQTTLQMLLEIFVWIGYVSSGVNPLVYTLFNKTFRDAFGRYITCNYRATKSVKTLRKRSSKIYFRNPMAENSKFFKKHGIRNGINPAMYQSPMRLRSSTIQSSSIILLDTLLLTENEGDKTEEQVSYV
- Format: functional, cell-based
Each record here notes measured AC50.

| Compound | Assay Endpoint | Test Result |
| --- | --- | --- |
| CC(=O)N1CCN(c2ccc(OCC3COC(Cn4ccnc4)(c4ccc(Cl)cc4Cl)O3)cc2)CC1 (configuration not stated) [KETOCONAZOLE] | AC50 | 15 µM |

Would you kindly look at the next entry?
Ask: // AC50 lookup, key: CCN(CCO)CCCC(C)Nc1ccnc2cc(Cl)ccc12 (configuration not stated) [HYDROXYCHLOROQUINE]
Reply: > 10 µM

====

- Tested On: Thromboxane A2 receptor (Homo sapiens, UniProt P21731); note: assay procedure not described here
- Sequence (P21731 whole entry): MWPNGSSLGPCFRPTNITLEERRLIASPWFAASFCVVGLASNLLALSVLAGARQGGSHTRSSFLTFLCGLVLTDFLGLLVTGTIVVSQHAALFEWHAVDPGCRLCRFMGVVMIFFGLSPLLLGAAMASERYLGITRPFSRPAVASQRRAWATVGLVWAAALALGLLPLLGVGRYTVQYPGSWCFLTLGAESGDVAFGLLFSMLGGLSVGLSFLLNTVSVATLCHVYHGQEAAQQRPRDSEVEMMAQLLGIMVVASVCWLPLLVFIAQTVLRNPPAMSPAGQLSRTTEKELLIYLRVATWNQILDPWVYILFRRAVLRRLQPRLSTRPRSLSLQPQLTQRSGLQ
- Type: functional, cell-based
Recorded AC50 by entry

| Compound | Test Result |
| --- | --- |
| CC1=C(/C=C/C(C)=C\C=C\C(C)=C\C(=O)O)C(C)(C)CCC1 [ALITRETINOIN] | > 30 µM |
| Cc1ccc(C(C)C)c(O)c1 [THYMOL] | > 30 µM |
| N[C@@H](Cc1ccc(N(CCCl)CCCl)cc1)C(=O)O | > 30 µM |

Ask: May I ask what AC50 has been recorded for Cc1cccc(C)c1NC(=O)CN(CC(=O)O)CC(=O)O [LIDOFENIN] ?
Reply: > 30 µM

Ask: Now consider CN(C)CCC=C1c2ccccc2CCc2ccccc21 [AMITRIPTYLINE] .
Reply: 26.3 µM

Ask: Now consider Nc1ccc(C(=O)NCC(=O)O)cc1 [AMINOHIPPURIC ACID] and answer again.
Reply: > 30 µM

Ask: For CC1(C)CCC(C)(C)c2cc(NC(=O)c3ccc(C(=O)O)cc3)ccc21 [TAMIBAROTENE] then?
Reply: 9.94 µM

Ask: Next entry: C[C@]12CC[C@@H]3c4ccc(OC(=O)N(CCCl)CCCl)cc4CC[C@H]3[C@@H]1CC[C@@H]2OP(=O)(O)O [ESTRAMUSTINE PHOSPHATE]
Reply: > 30 µM

Data provenance is ChEMBL document CHEMBL5291721.
